# key: entry, value: TGI
Test system: OVCAR-3 ovarian
procedure-summary: NCI tumour cell line growth inhibition, 48 h
Record the value in µM, omitting the unit from your answer.

molecule | TGI [µM]
CN1CCN(c2ccc(NC(=O)c3cncnc3Nc3ccc4c(ccn4Cc4cccc(F)c4)c3)cc2)CC1 | 8.48
CN(CCCNC(=O)c1nn(-c2ccccc2)c2c1Cc1ccccc1-2)CCCNC(=O)c1nn(-c2ccccc2)c2c1Cc1ccccc1-2 | 3.13
O=C1CCCc2cc3c(cc21)CC1(C3)Cc2cc3c(cc2C1)C(=O)CCC3 | 7.2
N#CC1=C(N)Oc2c(ccc3cccnc23)C1c1ccccc1 (centres undefined) | 2.95

Now consider the entry below.
Asked: Name the recorded TGI of the molecule listed here: `Cc1cc(O)cc(-c2nn(C)cc2-c2cc(N3CCOCC3)nc(-c3cccnc3)n2)c1`
Given back: 12.5

Taken from PubChem BioAssay (NCI).
